These data points were gathered from patent US11046699B2.

Target under test: GCN2 (Homo sapiens, UniProt Q9P2K8)
Sequence (Q9P2K8 whole entry): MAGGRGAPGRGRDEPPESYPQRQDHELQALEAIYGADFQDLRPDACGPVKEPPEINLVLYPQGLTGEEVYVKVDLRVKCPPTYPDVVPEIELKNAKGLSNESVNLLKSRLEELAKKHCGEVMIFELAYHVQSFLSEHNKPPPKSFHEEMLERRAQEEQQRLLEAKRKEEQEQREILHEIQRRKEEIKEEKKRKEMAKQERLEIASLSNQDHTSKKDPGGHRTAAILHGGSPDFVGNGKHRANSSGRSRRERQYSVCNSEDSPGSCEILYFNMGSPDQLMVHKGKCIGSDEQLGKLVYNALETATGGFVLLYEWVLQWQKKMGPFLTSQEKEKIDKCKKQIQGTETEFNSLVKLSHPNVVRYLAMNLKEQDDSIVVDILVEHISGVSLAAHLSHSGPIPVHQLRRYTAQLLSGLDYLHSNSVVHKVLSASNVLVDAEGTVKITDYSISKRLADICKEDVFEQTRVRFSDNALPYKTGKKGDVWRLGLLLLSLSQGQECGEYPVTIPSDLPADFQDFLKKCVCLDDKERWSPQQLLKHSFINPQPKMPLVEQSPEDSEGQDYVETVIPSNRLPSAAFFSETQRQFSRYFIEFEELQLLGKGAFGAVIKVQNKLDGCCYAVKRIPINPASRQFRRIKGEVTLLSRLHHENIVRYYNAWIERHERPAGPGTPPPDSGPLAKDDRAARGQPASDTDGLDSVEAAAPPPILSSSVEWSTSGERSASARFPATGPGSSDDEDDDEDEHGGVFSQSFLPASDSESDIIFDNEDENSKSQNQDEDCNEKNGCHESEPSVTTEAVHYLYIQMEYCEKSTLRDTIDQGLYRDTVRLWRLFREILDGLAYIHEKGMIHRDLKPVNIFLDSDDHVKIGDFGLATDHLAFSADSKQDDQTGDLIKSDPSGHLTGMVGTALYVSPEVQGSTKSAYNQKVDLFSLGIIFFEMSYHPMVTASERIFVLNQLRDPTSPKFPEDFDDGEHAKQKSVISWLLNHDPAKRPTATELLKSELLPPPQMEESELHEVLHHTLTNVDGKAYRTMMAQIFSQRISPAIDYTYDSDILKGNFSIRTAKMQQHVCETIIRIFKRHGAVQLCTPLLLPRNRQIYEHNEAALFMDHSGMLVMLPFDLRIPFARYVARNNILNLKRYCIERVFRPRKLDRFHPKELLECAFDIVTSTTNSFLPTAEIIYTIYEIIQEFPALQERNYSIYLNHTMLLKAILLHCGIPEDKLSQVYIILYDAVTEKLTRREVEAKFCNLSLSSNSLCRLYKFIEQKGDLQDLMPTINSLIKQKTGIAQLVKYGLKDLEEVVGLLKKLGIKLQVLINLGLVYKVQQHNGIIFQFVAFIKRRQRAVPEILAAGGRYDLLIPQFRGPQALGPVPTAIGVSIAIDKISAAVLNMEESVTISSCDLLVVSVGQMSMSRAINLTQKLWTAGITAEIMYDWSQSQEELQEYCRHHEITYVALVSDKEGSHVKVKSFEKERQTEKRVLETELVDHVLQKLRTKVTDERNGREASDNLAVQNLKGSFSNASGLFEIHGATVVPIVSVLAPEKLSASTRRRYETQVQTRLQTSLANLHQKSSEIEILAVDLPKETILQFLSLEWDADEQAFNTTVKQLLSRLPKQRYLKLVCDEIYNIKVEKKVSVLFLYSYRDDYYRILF
Experiment: GCN2 enzymatic endpoint assay: phosphorylation of GFP-eIF2α measured by TR-FRET (Lanthascreen)
Assay type: biochemical
Applied conditions: tested as described in Example 77; compound and/or hydrochloride, dihydrochloride or trifluoroacetic acid salt; read-out: IC 50 Activity
pIC50: −log10 of the molar value.

>  <Compound>
CNC(=O)C1(CCS(C)(=O)=O)CC[C@@H](Nc2ncc3c(Br)nn(-c4ccc(-c5nnc(C)s5)cc4)c3n2)C1 (stereo partly shown)

>  <pIC50>
6.70 to 7.60

$$$$
>  <Compound>
CNC(=O)[C@]1(C)CC[C@@H](Nc2ncc3c(Br)nn(-c4cc(CNCCC#N)c5ncccc5c4)c3n2)C1

>  <pIC50>
6.70 to 7.60

$$$$
>  <Compound>
C[C@H]1CN(C)C(=O)CN1C(=O)[C@@H]1CC[C@@H](Nc2ncc3c(Br)nn(-c4cc(F)c5ncccc5c4)c3n2)C1

>  <pIC50>
6.70 to 7.60

$$$$
>  <Compound>
O=C(N[C@@H]1CCOC1)[C@@H]1CC[C@@H](Nc2ncc3c(Br)nn(-c4ccc5ncccc5c4)c3n2)C1

>  <pIC50>
6.70 to 7.60

$$$$
>  <Compound>
CN1CCN(C(=O)[C@@H]2CC[C@@H](Nc3ncc4c(Br)nn(-c5ccc6ncccc6c5)c4n3)C2)CC1=O

>  <pIC50>
6.70 to 7.60

$$$$
>  <Compound>
O=C([C@@H]1CC[C@@H](Nc2ncc3c(Br)nn(-c4cc(F)c5ncccc5c4)c3n2)C1)N1CCN2C(=O)CC[C@H]2C1

>  <pIC50>
> 7.60

$$$$
>  <Compound>
COC(=O)N1CC[C@@H](Nc2ncc3c(Br)nn(-c4ccc(-c5nnc(C)s5)cc4)c3n2)C1

>  <pIC50>
6.70 to 7.60

$$$$
>  <Compound>
CNC(=O)[C@]1(C)CC[C@@H](Nc2ncc3c(Br)nn(-c4ccc(-c5ncco5)c(CCN)c4)c3n2)C1

>  <pIC50>
6.70 to 7.60

$$$$
>  <Compound>
CNC(=O)[C@]1(C)CC[C@@H](Nc2ncc3c(Br)nn(-c4ccc(-n5nccn5)cc4)c3n2)C1

>  <pIC50>
6.70 to 7.60

$$$$
>  <Compound>
CNC(=O)[C@H]1CC[C@@H](Nc2ncc3c(Br)nn(-c4cnc5c(C#N)cccc5c4)c3n2)C1

>  <pIC50>
6.70 to 7.60

$$$$
>  <Compound>
CNC(=O)[C@]1(C)CC[C@@H](Nc2ncc3c(Br)nn(-c4ccc(-c5ncco5)c(C5CCNCC5)c4)c3n2)C1

>  <pIC50>
6.70 to 7.60

$$$$
>  <Compound>
COCCN1CN(C(=O)C2(C)CC[C@@H](Nc3ncc4c(Br)nn(-c5cc(F)c6ncccc6c5)c4n3)C2)CC1=O (stereo partly shown)

>  <pIC50>
> 7.60

$$$$
>  <Compound>
CNC(=O)[C@H]1CC[C@@H](Nc2ncc3c(Br)nn(-c4ccc5nc(OC)ccc5c4)c3n2)C1

>  <pIC50>
6.70 to 7.60

$$$$
>  <Compound>
N#Cc1cc(-n2nc(Br)c3cnc(N[C@@H]4CC[C@@H](C(=O)N[C@H]5CCNC5)C4)nc32)cc2cccnc12

>  <pIC50>
> 7.60

$$$$
>  <Compound>
COC(=O)C1CN(C(=O)[C@@H]2CC[C@@H](Nc3ncc4c(Br)nn(-c5ccc6ncccc6c5)c4n3)C2)CCN1 (mixture of isomers)

>  <pIC50>
6.70 to 7.60

$$$$
>  <Compound>
CNC(=O)[C@]1(C)CC[C@@H](Nc2ncc3c(Br)nn(-c4cc([C@@H](C)CO)c5ncccc5c4)c3n2)C1

>  <pIC50>
> 7.60

$$$$
>  <Compound>
CNC(=O)[C@]1(C)CC[C@@H](Nc2ncc3c(Br)nn(-c4ccc5ncn(CCO)c(=O)c5c4)c3n2)C1

>  <pIC50>
6.70 to 7.60

$$$$
>  <Compound>
CCS(=O)(=O)N1Cc2cc(-n3nc(Br)c4cnc(N[C@@H]5CC[C@@](C)(C(=O)NC)C5)nc43)cnc2C1

>  <pIC50>
6.70 to 7.60

$$$$
>  <Compound>
CNC(=O)[C@]1(C)CC[C@@H](Nc2ncc3c(Br)nn(-c4ccc5ncn(CCCN)c(=O)c5c4)c3n2)C1

>  <pIC50>
6.70 to 7.60

$$$$
>  <Compound>
CNC(=O)[C@]1(C)CC[C@@H](Nc2ncc3c(Br)nn(-c4cc(CCN)c5c(c4)CCO5)c3n2)C1

>  <pIC50>
6.70 to 7.60

$$$$
>  <Compound>
C[C@@]1(O)CC[C@@H](Nc2ncc3c(Br)nn(-c4cc(CCN)c5ncccc5c4)c3n2)C1

>  <pIC50>
> 7.60

$$$$
>  <Compound>
CC(CNC(=O)[C@@H]1CC[C@@H](Nc2ncc3c(Br)nn(-c4ccc5ncccc5c4)c3n2)C1)N1CCCC1 (stereo partly shown)

>  <pIC50>
6.70 to 7.60

$$$$
>  <Compound>
CP(C)(=O)[C@@H]1CC[C@@H](Nc2ncc3c(Br)nn(-c4cc(CCN)c5nccnc5c4)c3n2)C1

>  <pIC50>
6.70 to 7.60

$$$$
>  <Compound>
CNC(=O)[C@]1(C)CC[C@@H](Nc2ncc3c(Br)nn(-c4ccc5nccc(=O)n5c4)c3n2)C1

>  <pIC50>
6.70 to 7.60

$$$$
>  <Compound>
CNC(=O)[C@]1(C)CC[C@@H](Nc2ncc3c(Br)nn(-c4ccc(-c5ncco5)c(NC(=O)[C@H]5CCNC5)c4)c3n2)C1

>  <pIC50>
> 7.60

$$$$
>  <Compound>
CNC(=O)[C@]1(C)CC[C@@H](Nc2ncc3c(Br)nn(-c4ccc5ncc(NC(=O)CCN)cc5c4)c3n2)C1

>  <pIC50>
> 7.60

$$$$
>  <Compound>
CNC(=O)[C@]1(C)CC[C@@H](Nc2ncc3c(Br)nn(-c4cc(CN5C(=O)CNC5=O)c5ncccc5c4)c3n2)C1

>  <pIC50>
6.70 to 7.60

$$$$
>  <Compound>
CNC(=O)[C@]1(C)CC[C@@H](Nc2ncc3c(Br)nn(-c4ccc5nc(N6CCN(C(C)=O)CC6)ncc5c4)c3n2)C1

>  <pIC50>
6.70 to 7.60

$$$$
>  <Compound>
C[C@@]1(CO)CC[C@@H](Nc2ncc3c(Br)nn(-c4cc(CCN)c5ncccc5c4)c3n2)C1

>  <pIC50>
6.70 to 7.60

$$$$
>  <Compound>
CNC(=O)[C@@H]1CC[C@@H](Nc2ncc3c(Br)nn(-c4ccn5nccc5c4)c3n2)C1

>  <pIC50>
6.70 to 7.60

$$$$
>  <Compound>
CCN(C)C(=O)[C@]1(C)CC[C@@H](Nc2ncc3c(Br)nn(-c4cc(F)c5ncccc5c4)c3n2)C1

>  <pIC50>
> 7.60

$$$$
